- Test system: NCI-H226 lung
- assay.notes: NCI tumour cell line growth inhibition, 48 h
# binarize TGI: threshold 20 µM inclusive, high side 1, low side 0

Here's what some known entries look like.
> print(dat)
                                   molecule  assigned.label
1  O=C(Nc1ccc(Br)cc1)C(=O)C(C(=O)c1ccc(Cl)c(Cl)c1)C1OC(=O)c2ccccc21 (stereo unspecified)               1
2          O/N=C1\C/C(=N\O)c2c(Br)sc(Br)c21               1
3  NS(=O)(=O)c1ccc(-n2nc3c(c2-c2cccs2)Cc2ccccc2-3)cc1               1
4   O=C(Nc1ccc(Br)c2ccccc12)c1ccc2ccccc2c1O               0
5  O=C1C=CC2C3C(=O)N(c4ccccc4)C(=O)C3C1N2Cc1ccccc1 (stereo unspecified)               0

IN: Can `O=C1C(c2ccccc2)=C(c2ccccc2)C1(Cl)Cl` be said to have TGI at or above 20 µM?
OUT: 0

IN: Consider next the molecule `O=[N+]([O-])c1c(O)c2nonc2c2nn(-c3ccccc3)nc12` in the same way.
OUT: 1

====

Field: TGI. Provide a value for each of the compounds that follow.
- System: RXF 393 renal
- assay.notes: NCI tumour cell line growth inhibition, 48 h

Worked examples follow.
> print(dat)
                                   compound  value.observed
1  C[C@]12CC[C@H]3[C@@H](CC[C@]4(O)C[C@@H](O)CC[C@]34C=O)[C@@]1(O)CC[C@@H]2C1=CC(=O)OC1        0.877 µM
2  COC(=O)C1=C(C)NC(=S)NC1c1ccc(N(CCCl)CCCl)cc1Cl (stereo not given)       > 81.2 µM
3  CC1(c2ccc(F)cc2)C2C(=O)NC(=O)C1C(=O)NC2=O (stereo not given)        > 100 µM
4          CCN(CC)/N=C\c1c2ccccc2cc2ccccc12         57.3 µM

Okay, now this compound:
IN: What value of TGI has been recorded for this entry: COC(=O)NC(Cc1ccccc1)NC(=O)OC(C)(C)C (stereo not given)
OUT: > 100 µM

====

Provide the recorded TGI for the entries that follow.
- Tested on: SK-MEL-2 melanoma
- assay.notes: NCI tumour cell line growth inhibition, 48 h
Answers are plain numbers, in µM.

Example entries and their recorded answers appear below.
> print(dat)
                                   compound  measure.name  units.of.measure  value.observed
1  O=C1C=CC2C3C(=O)N(c4ccccc4)C(=O)C3C1N2Cc1ccccc1 (stereo not given)           TGI                µM            9.29
2  OC(CCN1CCN(CCOC(c2ccccc2)c2ccccc2)CC1)c1ccccc1 (stereo not given)           TGI                µM            31.6
3  Clc1ccc2c(NC3CCC(N4CCCCC4)CC3)ccnc2c1 (stereo not given)           TGI                µM            33.9

Next, consider the following compound.
IN: May I ask what TGI has been recorded for `O=C(Nc1ccc(Cl)c(Cl)c1)c1ccc(NC2=C(Cl)C(=O)N(Cc3ccccc3)C2=O)cc1` ?
OUT: 22.1

====

Assign TGI to each entry below.
- Test system: SN12C renal
- assay.notes: NCI tumour cell line growth inhibition, 48 h

> print(dat)
                               compound  system.tested  value.observed
1  NC(=Nc1ccccc1)N/N=C/c1c[nH]c2ccccc12    SN12C renal         15.6 µM

The following compounds each have a reported value; give each one's TGI.
1. N#CC1=C(O)NC(O)=C(C#N)C1c1c(Cl)cccc1Cl
2. CC1(C)C2CC3C(C)(C2)C31c1cc(Cl)ccc1N (stereo unspecified)
3. COC(=O)Nc1nc2ccc(C(=O)c3cccc(I)c3)cc2[nH]1
4. Clc1ccc2c(NC3CCC(N4CCCCC4)CC3)ccnc2c1 (stereo unspecified)
5. CC1C(c2ccccc2)N(C)C(c2ccccc2)C(C)C1(O)c1ccccc1 (stereo unspecified)

OUT:
1: > 100 µM; 2: 27.5 µM; 3: > 33.3 µM; 4: > 100 µM; 5: > 100 µM

====

- System: HCT-116 colon
- assay.notes: NCI tumour cell line growth inhibition, 48 h
Exercise: state measured GI50 for each of the compounds provided.

Worked examples, 8 compounds total:
> print(dat)
                                   compound  measure.name  value.observed
1  NS(=O)(=O)c1ccc(-n2nc3c(c2-c2cccs2)Cc2ccccc2-3)cc1          GI50         7670 nM
2  CCN(CC)CCOc1nc2ccccc2c2c1-c1ccc(OC)cc1C2=O          GI50          331 nM
3  O=C(Nc1cccc([N+](=O)[O-])c1)c1cccc(C(=O)Nc2cccc([N+](=O)[O-])c2)c1          GI50        41900 nM
4  O=C1C=CC2C3C(=O)N(c4ccccc4)C(=O)C3C1N2Cc1ccccc1 (centres undefined)          GI50         1560 nM
5  Clc1cnc(Nc2ccc(OCCN3CCCC3)cc2)nc1NCc1ccco1          GI50         2560 nM
6  COc1nn(C)cc1Nc1nccc(-c2c[nH]c3c(NC(=O)[C@@H](C)N4CCN(C)CC4)cccc23)n1          GI50        34300 nM
7  COc1cc2ncnc(Oc3ccc(NC(=O)Nc4ccc(CN5CCOCC5)c(C(F)(F)F)c4)c4ccccc34)c2cc1OC          GI50          802 nM
8  CCOC(=O)N1CCC(N=C2CSc3nnc(-c4cc(C(F)(F)F)cc(C(F)(F)F)c4)n3N2)CC1          GI50         1900 nM

Next compound, GI50 to be filled in.
IN: Could you share which GI50 value was measured for `COc1c(C(N)=O)cc(-c2ccc(Cl)cc2)cc1-c1ccc(S(N)(=O)=O)cc1` ?
OUT: 12400 nM

====

Please go through the items and note down their TGI.
- System: UACC-257 melanoma
- assay.notes: NCI tumour cell line growth inhibition, 48 h

> print(dat)
                                   compound      system.tested  value.observed
1  O=C1/C=C/[C@@H](O)[C@@H]2C[C@@H](O)C[C@H]2/C=C/CCC[C@H](CCO)O1  UACC-257 melanoma        > 100 µM
2   O=C(Nc1ccc(Br)c2ccccc12)c1ccc2ccccc2c1O  UACC-257 melanoma         23.9 µM
3  CN1C(=O)N(C)C2C1NC(=S)N2/N=C/C=C/c1ccccc1[N+](=O)[O-] (stereo not given)  UACC-257 melanoma        > 100 µM
4                   CCCCCCCCCCCCCCNCC(OC)OC  UACC-257 melanoma         37.5 µM

Now for the compound whose TGI we want.
IN: Any idea what its TGI is? The compound is CC(=O)OC1CC2(C)C(=CC1C1SCCS1)CCC1C2CCC2(C)C(OC(C)=O)CCC12 (stereo not given)
OUT: > 100 µM

====

- Tested on: MDA-MB-231 breast
- assay.notes: NCI tumour cell line growth inhibition, 48 h; in the data active = GI50 below about 0.43 µM; inactive = the rest
Pick one and only one: active, inactive

> print(dat)
                                   compound  assigned.label
1  CCN(CC)CCOc1nc2ccccc2c2c1-c1ccc(OC)cc1C2=O        inactive

IN: How was `Cc1ccc2sc3c(NCCCN)nc4ccccc4c3c(=O)c2c1` classified in this test?
OUT: inactive

IN: What do we get for `COc1cc(OC)c(/C=C/C(=O)c2c(OC)cc(OC)cc2OC)c(OC)c1` ?
OUT: inactive

IN: Record: `CCC[CH2][Sn]1([CH2]CCC)[O]C(=O)c2cccc([N+](=O)[O-])c2C(=O)[O]1`
OUT: active

====

- System: RXF 393 renal
- assay.notes: NCI tumour cell line growth inhibition, 48 h
measure.name: TGI (µM)
Give bare numbers, in µM.

> print(dat)
                                   compound  system.tested  value.observed
1  C=C1C(=O)O[C@@H]2/C=C(/C)[C@@H](OC(C)=O)C[C@@H](O)/C(C)=C\[C@@H](OC(=O)[C@]3(C)O[C@@H]3C)[C@@H]12  RXF 393 renal            29.3

Switching to the query record.
IN: // TGI lookup, key: COc1cc2[nH]c3c(c2cc1OC)CCN[C@@]31CC[C@@]2(CC3c4c(cc(OC)c(O)c42)CCN3C)C[C@@H]1OC (some centres undefined)
OUT: 77.9
